# measured_target: AChE peripheral site (Homo sapiens, UniProt P22303)
# Sequence (P22303 32-614): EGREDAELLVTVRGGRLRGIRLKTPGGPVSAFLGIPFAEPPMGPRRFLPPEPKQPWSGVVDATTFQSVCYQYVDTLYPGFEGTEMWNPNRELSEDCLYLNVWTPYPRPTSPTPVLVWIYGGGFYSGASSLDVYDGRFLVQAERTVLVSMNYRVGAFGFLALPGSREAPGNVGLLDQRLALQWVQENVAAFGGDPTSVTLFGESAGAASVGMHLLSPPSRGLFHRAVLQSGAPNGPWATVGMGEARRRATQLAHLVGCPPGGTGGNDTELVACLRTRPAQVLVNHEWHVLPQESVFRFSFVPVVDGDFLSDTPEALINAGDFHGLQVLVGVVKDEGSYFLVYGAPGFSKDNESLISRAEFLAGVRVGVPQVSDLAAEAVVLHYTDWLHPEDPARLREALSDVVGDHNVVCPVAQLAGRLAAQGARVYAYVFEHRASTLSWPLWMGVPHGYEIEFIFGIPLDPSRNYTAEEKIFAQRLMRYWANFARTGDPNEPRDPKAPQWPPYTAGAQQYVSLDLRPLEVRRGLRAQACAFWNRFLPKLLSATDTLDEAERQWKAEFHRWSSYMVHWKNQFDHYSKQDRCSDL
# test_summary: Propidium competition (fluorescence)
# Assay type: binding
# setup_conditions: 20 μM propidium iodide, AChE incubated at least 6 hours with compound
Collected Propidium competition values appear next to each entry.
quantity_name: Propidium competition (µM)

[[record]]
compound = "O=C1c2ccccc2C(=O)N1CCCCCCCNc1c2ccccc2nc2ccccc12 [Compound 7]"
unit_symbol = "µM"
sign = "="
observed_measurement = 100

[[record]]
compound = "O=C(CN1C(=O)c2ccccc2C1=O)NCCCCCCNc1c2c(nc3cc(Cl)ccc13)CCCC2 [Compound 12]"
unit_symbol = "µM"
sign = "="
observed_measurement = 100

[[record]]
compound = "O=C1c2ccccc2C(=O)N1CCCCCCCCNc1c2ccccc2nc2ccccc12 [Compound 8]"
unit_symbol = "µM"
sign = ">"
observed_measurement = 100

[[record]]
compound = "O=C1c2ccccc2C(=O)N1CCCCCCCCNc1c2c(nc3ccccc13)CCCC2 [Compound 5]"
unit_symbol = "µM"
sign = ">"
observed_measurement = 100

[[record]]
compound = "Clc1ccc2c(NCCCCCCCNc3c4ccccc4nc4ccccc34)c3c(nc2c1)CCCC3 [Compound 23]"
unit_symbol = "µM"
sign = "="
observed_measurement = 1

[[record]]
compound = "CCCn1s/c(=N\\CCCCCCCNc2c3c(nc4ccccc24)CCCC3)n(CC)c1=O [Compound 16]"
unit_symbol = "µM"
sign = ">"
observed_measurement = 100

[[record]]
compound = "CN(CCCNC(=O)CN1C(=O)c2ccccc2C1=O)CCCNc1c2c(nc3cc(Cl)ccc13)CCCC2 [Compound 11]"
unit_symbol = "µM"
sign = "="
observed_measurement = 10

[[record]]
compound = "CN(CCCNc1c2c(nc3cc(Cl)ccc13)CCCC2)CCCNc1c2c(nc3cc(Cl)ccc13)CCCC2 [Compound 19]"
unit_symbol = "µM"
sign = "="
observed_measurement = 10


Origin of measurements: patent US20060142323A1
